biological target: T1, human CD40 with C-terminal Flag tag on HEK293 cells (human, UniProt P25942 21-277); assay: FACS, HEK293 cells transiently expressing human CD40
T1 construct: whole, on cells; also called HEK293 cells highly expressing CD40; cell strain highly expressing human CD40
T1 sequence (P25942 other isoform, or with tags, fused parts or gaps): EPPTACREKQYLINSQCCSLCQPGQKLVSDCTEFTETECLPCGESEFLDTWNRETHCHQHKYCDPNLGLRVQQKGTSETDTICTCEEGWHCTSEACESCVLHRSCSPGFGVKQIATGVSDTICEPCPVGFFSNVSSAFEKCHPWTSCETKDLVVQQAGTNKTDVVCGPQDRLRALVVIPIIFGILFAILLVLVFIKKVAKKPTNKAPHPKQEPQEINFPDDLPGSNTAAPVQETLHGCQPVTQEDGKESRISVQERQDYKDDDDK
measuredQuantity: Emax (MFI)

binder	unitsOfMeasure	quantitativeReadout
A297V4-Fc (Fc fusion) EVQLVESGGGLVQPGGSLRLSCAASGFTFSRYGMKWVRQAPGKGLEWVSTINSHGDSTYYADSVKGRFTISRDNSKNTLYLQMNSLRAEDTAVYYCLKIDYSDYSSRGQGTLVTVSSEPKSADKTHTCPPCPAPELLGGPSVFLFPPKPKDTLMISRTPEVTCVVVDVEHEDPEVKFNWYVDGVEVHNAKTKPREEQYNSTYRVVSVLTVLHQDWLNGKEYKCKVSSKAFPAPIEKTISKAKGQPREPQVYTLPPSRDELTKNQVSLTCLVKGFYPSDIAVEWESNGQPENNYKTTPPVLDSDGSFFLYSKLTVDKSRWQQGNVFSCSVMHEALHNHYTQKSLSLSPGK	MFI	8260
